# test-details: viability loss with induced miR-34 in A549 – imaging, A549 dox-inducible miR-34, nuclei and caspase counts, primary screen (AID 1347080); note: test concentration not given here
# condition-set: A549 miR-34 inducible, Hoechst nuclei count, 48 h; active compounds read low; cell number ratio, induced over uninduced
metric: fold change
// print number alone

Fill blank: measured fold change of the compound `O=C(c1cn(Cc2cncn2Cc2ccc(Br)cc2)cc1-c1cccc2ccccc12)N1CCOCC1` is ____.
0.999

Dear colleague, I am looking for the recorded fold change of the following compound: `Clc1ccc(N2CCN(Cc3cc4ccccn4n3)CC2)cc1`
1.01

Please look up its fold change: `CN(C)CCC=C1c2ccccc2Sc2ccc(Cl)cc21`
1.02

Entry `N.N.N.N.N.N.N.N.N.N.N.N.N.N.O.O.[Cl-].[Cl-].[Cl-].[Cl-].[Cl-].[Cl-].[Ru+4].[Ru+5].[Ru+5]` has what fold change?
1.03

So what's the measured fold change for this one? `CC(=O)c1cc([N+](=O)[O-])c(Sc2cccc(Cl)c2Cl)s1`
0.882

Please give the measured fold change for this compound: `c1nc(N2CCOCC2)c2[nH]cnc2n1`
0.913

Using the record for COc1c(O)cc2c(c1O)[C@@H]1OC(CO)C(O)C(O)[C@H]1OC2=O (stereo not given in full) , report its fold change.
0.888

Which fold change is reported for this compound? CCc1cnn2c(NCc3ccc[n+]([O-])c3)cc(N3CCCCC3CCO)nc12 (stereo not given)
1.13

Field request: fold change | item: `CC(C)C[C@@H](/C=C/S(C)(=O)=O)NC(=O)[C@H](CC(C)C)NC(=O)[C@H](CC(C)C)NC(=O)OCc1ccccc1`
0.878

Value lookup for fold change; key = `Cc1nonc1CN(C)c1ncnc2nc[nH]c12`
0.907
